The reported numbers originate from patent US20240285646A1.

# measurement_protocol: Phase 1A pharmacokinetics of oral NNI-362 in 1% methylcellulose suspension (Cohorts A-E)
# Assay type: in vivo, human
# conditions: human, plasma, po, 60 mg, 60 mg oral, SAD, individual subjects
observed_property: AUC(0-t) (ng·h/mL)
Give the quantity in ng·h/mL, number only.

Challenge: Annotate the compound CCOc1ccccc1NC(=S)N1CCCN(c2nc3cc(C)c(C)cc3cc2C#N)CC1 [NNI-362] with its measured AUC(0-t).
Response given: 0.473

----------
# measurement_protocol: Phase 1A pharmacokinetics of oral NNI-362 in lipid-based formulation (Cohorts F and G)
# Assay type: in vivo, human
# conditions: human, plasma, po, 240 mg, Cohort G, 240 mg oral, MAD, lipid formulation, cohort mean; read-out: Tmax
observed_property: Tmax (h)
Just the number please, in h, no unit attached.

Challenge: Provide only the value of recorded Tmax for CCOc1ccccc1NC(=S)N1CCCN(c2nc3cc(C)c(C)cc3cc2C#N)CC1 [NNI-362]
Response given: 3.17
